# assay-target: HLA B*0702 (Homo sapiens)
Where a SMILES comes first, the peptide text is derived from it.
experimental-readout: IC50

Q: What value of measured IC50 is listed for CC(C)C[C@H](NC(=O)[C@H](CCC(N)=O)NC(=O)[C@@H](NC(=O)[C@@H]1CCCN1C(=O)[C@@H](N)CC(N)=O)C(C)C)C(=O)N[C@@H](CCCCN)C(=O)N[C@@H](CO)C(=O)N[C@@H](CCCCN)C(=O)N[C@@H](Cc1ccccc1)C(=O)O (H-NPVQLKSKF-OH) ?
A: 59.6 µM

Q: Returns the measured IC50 for the input molecule. Input: CC[C@H](C)[C@H](NC(=O)[C@@H]1CCCN1C(=O)[C@@H](N)CC(C)C)C(=O)N[C@@H](CCC(=O)O)C(=O)N1CCC[C@H]1C(=O)N[C@@H](CCCCN)C(=O)N[C@@H](CCCCN)C(=O)N[C@@H](CC(C)C)C(=O)N[C@@H](C)C(=O)O (H-LPIEPKKLA-OH)
A: 561 µM

Q: Which IC50 is listed for CSCC[C@H](NC(=O)[C@H](CCC(=O)O)NC(=O)[C@@H](N)[C@@H](C)O)C(=O)N[C@@H](Cc1ccccc1)C(=O)N[C@@H](CCCCN)C(=O)N[C@@H](CC(C)C)C(=O)N[C@@H](CCCNC(=N)N)C(=O)N[C@@H](CC(C)C)C(=O)N[C@@H](CC(N)=O)C(=O)N[C@@H](CC(C)C)C(=O)O (H-TEMFKLRLNL-OH) ?
A: > 1000 µM

Origin of values: paper PMC8138313
